Tested on: Mycobacterium tuberculosis
Assay: Antimycobacterial activity against Mycobacterium tuberculosis H37Ra by microplate Alamar blue assay
Assay type: functional
Parameter: MIC

Compound	Target	MIC
NNC(=O)c1ccncc1	Mycobacterium tuberculosis	0.04 µg/mL

Form: compound = NC[C@H]1O[C@H](O[C@H]2[C@H](O)[C@@H](O[C@H]3O[C@H](CO)[C@@H](O)[C@H](N)[C@H]3O)[C@H](N)C[C@@H]2N)[C@H](O)[C@@H](O)[C@@H]1O.O=S(=O)(O)O [KANAMYCIN SULFATE] ; MIC = 2 µg/mL
